Biological target: human P2X4 (Homo sapiens, UniProt Q99571)
Sequence (Q99571 1-388): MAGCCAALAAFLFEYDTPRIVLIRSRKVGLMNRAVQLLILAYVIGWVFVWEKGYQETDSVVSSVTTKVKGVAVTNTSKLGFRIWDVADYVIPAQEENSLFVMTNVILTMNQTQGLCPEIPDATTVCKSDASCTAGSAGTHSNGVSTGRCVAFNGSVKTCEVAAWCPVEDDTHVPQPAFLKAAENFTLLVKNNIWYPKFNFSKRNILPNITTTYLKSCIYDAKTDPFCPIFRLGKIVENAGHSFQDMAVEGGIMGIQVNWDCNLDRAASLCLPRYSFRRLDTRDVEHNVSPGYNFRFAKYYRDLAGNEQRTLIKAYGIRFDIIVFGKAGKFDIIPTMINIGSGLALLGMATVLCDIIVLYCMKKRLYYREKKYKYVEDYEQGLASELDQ
Experiment: Human P2X4 HEK Cell FLIPR Assay
Format: cell-based
Conditions: HEK293, HEK293 cells, agonist Bz-ATP at EC80; percentage of maximal inhibition; read-out: Human P2X4 HEK Cells (FLIPR Assay) avg Efficacy [%]
Reported Property: Emax (%)

Previously resolved entries follow.
What value of measured Emax is listed for `N#Cc1cnn(-c2ccc(NC(=O)Cc3ccccc3Cl)c(C(F)(F)F)c2S(N)(=O)=O)c1` ?
45

GET /values?readout=Emax&item= `NS(=O)(=O)c1cc(NC(=O)Cc2cc(F)ccc2Cl)ccc1-c1cnn(C(F)F)c1`
92

Please look up its Emax: `NS(=O)(=O)c1cc(NC(=O)Cc2cccc(Cl)c2)ccc1-c1cncc(C(F)(F)F)c1`
77

(A) NS(=O)(=O)c1cc(NC(=O)Cc2ccccc2Cl)ccc1-c1cncc(OC(F)F)c1
(B) Cc1ccc(CC(=O)Nc2ccc(-n3cc(Cl)cn3)c(S(N)(=O)=O)c2)cc1
Lab note: record which item had the higher Emax, A or B . Write down the label of the entry you select.
A

====

Molecular target: human P2X4 (Homo sapiens, UniProt Q99571)
Sequence (Q99571 1-388): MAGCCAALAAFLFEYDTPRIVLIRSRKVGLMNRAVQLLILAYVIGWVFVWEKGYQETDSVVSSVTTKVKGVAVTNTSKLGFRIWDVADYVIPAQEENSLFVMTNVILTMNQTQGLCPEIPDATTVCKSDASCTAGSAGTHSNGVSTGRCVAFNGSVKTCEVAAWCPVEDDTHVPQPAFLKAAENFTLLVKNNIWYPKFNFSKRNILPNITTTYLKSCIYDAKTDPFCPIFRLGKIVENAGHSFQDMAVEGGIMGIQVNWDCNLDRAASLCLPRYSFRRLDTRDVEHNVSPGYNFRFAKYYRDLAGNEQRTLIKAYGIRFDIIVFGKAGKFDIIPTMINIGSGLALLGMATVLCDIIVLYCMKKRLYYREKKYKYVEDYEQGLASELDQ
Experiment: Human P2X4 HEK Cell FLIPR Assay
Details: HEK293 cells, agonist Bz-ATP at EC80; individual values listed where some fall outside detection range
Reported Property: IC50 (µM)

Consider the worked cases shown below.
# query: IC50 of entry `NS(=O)(=O)c1cc(NC(=O)Cc2ccccc2Cl)ccc1-n1cnc(C(F)(F)F)n1`
3.08

I have this compound here, `CCc1ncn(-c2ccc(NC(=O)Cc3ccccc3Cl)cc2S(N)(=O)=O)n1` , and I need its recorded IC50.
0.224

Quick one: IC50 of `CC(C)c1ncn(-c2ccc(NC(=O)Cc3ccccc3Cl)cc2S(N)(=O)=O)n1` ?
0.093

Find the recorded IC50 belonging to `CC(C)(O)c1ncc(-c2ccc(NC(=O)Cc3ccccc3Cl)cc2S(N)(=O)=O)s1` and report it.
0.588

Please give the measured IC50 for this compound: `Cc1ccc(F)c(CC(=O)Nc2ccc(-n3cc(C#N)cn3)c(S(N)(=O)=O)c2)c1Cl`
0.012

Requested read-out: IC50. Entry: `NS(=O)(=O)c1cc(NC(=O)Cc2ccccc2Br)ccc1-n1cc(C(F)(F)F)cn1`
0.102

(P) NS(=O)(=O)c1cc(NC(=O)Cc2ccccc2Cl)ccc1-n1cc(CC(F)(F)F)cn1
(Q) NS(=O)(=O)c1cc(NC(=O)Cc2ccccc2Cl)ccc1-n1ccc(C2CC2)n1
(R) N#Cc1cnn(-c2ccc(NC(=O)Cc3cccnc3Cl)cc2S(N)(=O)=O)c1
(S) NS(=O)(=O)c1cc(NC(=O)Cc2ccccc2Cl)ccc1-n1cc(NC(=O)C(F)F)cn1
Please put the entries in order of rising IC50. // format: requested-order list of labels
P, S, Q, R
(P: 0.036 µM, S: 0.391 µM, Q: 0.808 µM, R: 4.33 µM)
